The reported measurements were obtained from the supplement of paper PMC6555819.

# Tested on: RARb:RXRa (NR concentration 270 nM, RXRa partner concentration 90 nM)
# MEASUREMENT DESCRIPTION: PBM binding z-score (relative to random genomic background probes); higher = stronger binding; sequences stand for … in GC…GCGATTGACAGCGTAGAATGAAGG
Kind request: treat 0.9 as inclusive, so PBM binding z-score at 0.9 or higher is yes (1), anything lower is no (0).

The following sequences have reported results that may help.
>>> df
                   construct_sequence    label
0  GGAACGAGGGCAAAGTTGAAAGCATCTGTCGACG  yes (1)
1  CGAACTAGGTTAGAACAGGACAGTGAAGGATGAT   no (0)
2  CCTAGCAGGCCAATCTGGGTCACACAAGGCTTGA  yes (1)
3  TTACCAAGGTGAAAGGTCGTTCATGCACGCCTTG  yes (1)

Exercise: Determine whether measured PBM binding z-score meets or exceeds 0.9 for "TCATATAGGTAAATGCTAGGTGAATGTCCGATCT"
Key: no (0)

Exercise: // repeat for "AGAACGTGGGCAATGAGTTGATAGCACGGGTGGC" and report
Key: no (0)

Exercise: // repeat for "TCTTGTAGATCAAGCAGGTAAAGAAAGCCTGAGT" and report
Key: no (0)

Exercise: // repeat for "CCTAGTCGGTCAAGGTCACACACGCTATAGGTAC" and report
Key: yes (1)

Exercise: // repeat for "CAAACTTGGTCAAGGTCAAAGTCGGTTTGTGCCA" and report
Key: yes (1)

Exercise: // repeat for "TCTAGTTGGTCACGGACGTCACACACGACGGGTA" and report
Key: yes (1)

Exercise: // repeat for "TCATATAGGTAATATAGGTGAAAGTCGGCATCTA" and report
Key: no (0)

----------
# Test system: PPARg DBDmut:RXRa IVT, anti-PPARg (DBD mutation: PPARg1 K132A/R137A, NR concentration 270 nM, RXRa partner concentration 90 nM)
# MEASUREMENT DESCRIPTION: PBM binding z-score (relative to random genomic background probes); higher = stronger binding; sequences stand for … in GC…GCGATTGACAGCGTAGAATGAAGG
Recorded measurements of PBM binding z-score, one per entry

Exercise: For the sequence "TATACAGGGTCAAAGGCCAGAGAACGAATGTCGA" , what PBM binding z-score is on record?
Key: 1.74

Exercise: // repeat for "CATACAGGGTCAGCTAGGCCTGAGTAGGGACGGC" and report
Key: 0.675

Exercise: // repeat for "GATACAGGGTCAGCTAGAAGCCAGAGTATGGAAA" and report
Key: -0.0163

Exercise: // repeat for "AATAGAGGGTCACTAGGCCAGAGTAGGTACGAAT" and report
Key: 0.782

Exercise: // repeat for "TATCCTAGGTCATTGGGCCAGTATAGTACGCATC" and report
Key: 1.68

Exercise: // repeat for "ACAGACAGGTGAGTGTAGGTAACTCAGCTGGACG" and report
Key: -0.529

----------
# Tested on: RARb homodimer (NR concentration 270 nM)
# MEASUREMENT DESCRIPTION: PBM binding z-score (relative to random genomic background probes); higher = stronger binding; sequences stand for … in GC…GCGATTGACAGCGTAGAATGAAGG
ENDPOINT: PBM binding z-score

Use these answered entries as a reference point.
>>> df
                   construct_sequence                       experimental_system             endpoint  result
0  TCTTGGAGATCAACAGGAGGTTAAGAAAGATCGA  RARb homodimer (NR concentration 270 nM)  PBM binding z-score   0.488
1  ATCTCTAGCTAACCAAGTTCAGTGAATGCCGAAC  RARb homodimer (NR concentration 270 nM)  PBM binding z-score    1.01
2  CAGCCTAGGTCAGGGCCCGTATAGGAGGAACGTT  RARb homodimer (NR concentration 270 nM)  PBM binding z-score    2.26
3  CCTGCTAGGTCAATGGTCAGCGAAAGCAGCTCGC  RARb homodimer (NR concentration 270 nM)  PBM binding z-score    2.63
4  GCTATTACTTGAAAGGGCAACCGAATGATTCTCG  RARb homodimer (NR concentration 270 nM)  PBM binding z-score    2.01
5  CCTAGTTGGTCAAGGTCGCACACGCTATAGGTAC  RARb homodimer (NR concentration 270 nM)  PBM binding z-score    2.39
6  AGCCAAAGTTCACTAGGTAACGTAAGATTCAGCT  RARb homodimer (NR concentration 270 nM)  PBM binding z-score    3.85
7  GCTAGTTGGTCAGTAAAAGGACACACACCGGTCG  RARb homodimer (NR concentration 270 nM)  PBM binding z-score    2.31
8  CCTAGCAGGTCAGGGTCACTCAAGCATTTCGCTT  RARb homodimer (NR concentration 270 nM)  PBM binding z-score    4.32
9  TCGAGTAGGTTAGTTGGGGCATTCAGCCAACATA  RARb homodimer (NR concentration 270 nM)  PBM binding z-score   0.525

Exercise: For the sequence "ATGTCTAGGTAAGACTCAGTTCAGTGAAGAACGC" , what PBM binding z-score is on record?
Key: 0.578

Exercise: // repeat for "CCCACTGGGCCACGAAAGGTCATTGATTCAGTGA" and report
Key: 4.6

Exercise: // repeat for "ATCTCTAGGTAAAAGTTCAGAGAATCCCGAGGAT" and report
Key: 2.16

Exercise: // repeat for "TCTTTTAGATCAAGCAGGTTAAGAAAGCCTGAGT" and report
Key: 0.0271
